Test system: Escherichia coli TOP10
Assay: shrunken log2 fold change of peptide-encoding DNA abundance (4.5 h post-induction vs induction); higher = less antimicrobial activity (less host growth inhibition)
Conditions: time post-induction: 4.5 h; library: site-saturation at positions 5, 18, 19, 20
READOUT: shrunken log2 fold change

[
  {
    "SEQ_STRING": "RRIRERPPRLPRPRPRPNHQPRP",
    "READOUT": "shrunken log2 fold change",
    "RESULT": -0.259
  },
  {
    "SEQ_STRING": "RRIRTRPPRLPRPRPRPRMSPRP",
    "READOUT": "shrunken log2 fold change",
    "RESULT": -0.259
  },
  {
    "SEQ_STRING": "RRIRMRPPRLPRPRPRPHMIPRP",
    "READOUT": "shrunken log2 fold change",
    "RESULT": -0.159
  },
  {
    "SEQ_STRING": "RRIRARPPRLPRPRPRPNYEPRP",
    "READOUT": "shrunken log2 fold change",
    "RESULT": -0.22
  },
  {
    "SEQ_STRING": "RRIRWRPPRLPRPRPRPDNWPRP",
    "READOUT": "shrunken log2 fold change",
    "RESULT": 0.104
  },
  {
    "SEQ_STRING": "RRIRVRPPRLPRPRPRPQSSPRP",
    "READOUT": "shrunken log2 fold change",
    "RESULT": -0.0172
  },
  {
    "SEQ_STRING": "RRIRSRPPRLPRPRPRPFKPPRP",
    "READOUT": "shrunken log2 fold change",
    "RESULT": -0.297
  },
  {
    "SEQ_STRING": "RRIRNRPPRLPRPRPRPWIYPRP",
    "READOUT": "shrunken log2 fold change",
    "RESULT": -0.187
  }
]

----------
System: Escherichia coli TOP10
Assay: shrunken log2 fold change of peptide-encoding DNA abundance (4.5 h post-induction vs induction); higher = less antimicrobial activity (less host growth inhibition)
Details: time post-induction: 4.5 h; library: site-saturation at positions 5, 18, 19, 20
Class membership depends on shrunken log2 fold change alone; the intervals are range 1 (below -0.1), range 2 (-0.1 to below 0.04), range 3 (0.04 or more)

[
  {
    "SEQ_STRING": "RRIRLRPPRLPRPRPRPPIHPRP",
    "ASSIGNED_CATEGORY": "range 1"
  },
  {
    "SEQ_STRING": "RRIRVRPPRLPRPRPRPCSFPRP",
    "ASSIGNED_CATEGORY": "range 2"
  },
  {
    "SEQ_STRING": "RRIRCRPPRLPRPRPRPVIEPRP",
    "ASSIGNED_CATEGORY": "range 1"
  },
  {
    "SEQ_STRING": "RRIRDRPPRLPRPRPRPKVGPRP",
    "ASSIGNED_CATEGORY": "range 2"
  },
  {
    "SEQ_STRING": "RRIRQRPPRLPRPRPRPHFVPRP",
    "ASSIGNED_CATEGORY": "range 1"
  },
  {
    "SEQ_STRING": "RRIRYRPPRLPRPRPRPEPEPRP",
    "ASSIGNED_CATEGORY": "range 3"
  },
  {
    "SEQ_STRING": "RRIRGRPPRLPRPRPRPWMFPRP",
    "ASSIGNED_CATEGORY": "range 3"
  },
  {
    "SEQ_STRING": "RRIRFRPPRLPRPRPRPFCGPRP",
    "ASSIGNED_CATEGORY": "range 2"
  },
  {
    "SEQ_STRING": "RRIRSRPPRLPRPRPRPDECPRP",
    "ASSIGNED_CATEGORY": "range 3"
  },
  {
    "SEQ_STRING": "RRIRFRPPRLPRPRPRPYYIPRP",
    "ASSIGNED_CATEGORY": "range 1"
  },
  {
    "SEQ_STRING": "RRIRKRPPRLPRPRPRPELCPRP",
    "ASSIGNED_CATEGORY": "range 2"
  },
  {
    "SEQ_STRING": "RRIRHRPPRLPRPRPRPVPLPRP",
    "ASSIGNED_CATEGORY": "range 1"
  },
  {
    "SEQ_STRING": "RRIRVRPPRLPRPRPRPWFMPRP",
    "ASSIGNED_CATEGORY": "range 1"
  },
  {
    "SEQ_STRING": "RRIRPRPPRLPRPRPRPFHPPRP",
    "ASSIGNED_CATEGORY": "range 1"
  },
  {
    "SEQ_STRING": "RRIRNRPPRLPRPRPRPHVWPRP",
    "ASSIGNED_CATEGORY": "range 3"
  },
  {
    "SEQ_STRING": "RRIRYRPPRLPRPRPRPVNAPRP",
    "ASSIGNED_CATEGORY": "range 1"
  },
  {
    "SEQ_STRING": "RRIRMRPPRLPRPRPRPSPRPRP",
    "ASSIGNED_CATEGORY": "range 3"
  },
  {
    "SEQ_STRING": "RRIRCRPPRLPRPRPRPCMCPRP",
    "ASSIGNED_CATEGORY": "range 1"
  },
  {
    "SEQ_STRING": "RRIRWRPPRLPRPRPRPTGIPRP",
    "ASSIGNED_CATEGORY": "range 3"
  },
  {
    "SEQ_STRING": "RRIRCRPPRLPRPRPRPGGVPRP",
    "ASSIGNED_CATEGORY": "range 3"
  },
  {
    "SEQ_STRING": "RRIRARPPRLPRPRPRPNSRPRP",
    "ASSIGNED_CATEGORY": "range 3"
  },
  {
    "SEQ_STRING": "RRIRVRPPRLPRPRPRPEHCPRP",
    "ASSIGNED_CATEGORY": "range 3"
  }
]

----------
Test system: Escherichia coli TOP10
Assay: shrunken log2 fold change of peptide-encoding DNA abundance (4.5 h post-induction vs induction); higher = less antimicrobial activity (less host growth inhibition)
Conditions: time post-induction: 4.5 h; library: site-saturation at positions 5, 18, 19, 20
READOUT: shrunken log2 fold change

[
  {
    "SEQ_STRING": "RRIRRRPPRLPRPRPRPDFVPRP",
    "SYSTEM_TESTED": "Escherichia coli TOP10",
    "NUMERIC_VALUE": -0.0983
  },
  {
    "SEQ_STRING": "RRIRSRPPRLPRPRPRPTGMPRP",
    "SYSTEM_TESTED": "Escherichia coli TOP10",
    "NUMERIC_VALUE": 0.0395
  },
  {
    "SEQ_STRING": "RRIRMRPPRLPRPRPRPQPTPRP",
    "SYSTEM_TESTED": "Escherichia coli TOP10",
    "NUMERIC_VALUE": 0.868
  },
  {
    "SEQ_STRING": "RRIRGRPPRLPRPRPRPINPPRP",
    "SYSTEM_TESTED": "Escherichia coli TOP10",
    "NUMERIC_VALUE": -0.0416
  },
  {
    "SEQ_STRING": "RRIRPRPPRLPRPRPRPKTWPRP",
    "SYSTEM_TESTED": "Escherichia coli TOP10",
    "NUMERIC_VALUE": 0.0474
  }
]

----------
Test system: Escherichia coli TOP10;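 further: peptides expressed intracellularly from a pBAD plasmid library in pooled LB shake-flask culture, induced with 0.3% L-arabinose, DNA abundance read by NGS, three biological replicates, DESeq2 with apeglm shrinkage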
Test: shrunken log2 fold change of peptide-encoding DNA abundance (4.5 h post-induction vs induction); higher = less antimicrobial activity (less host growth inhibition)
Settings: time post-induction: 4.5 h; library: site-saturation at positions 5, 18, 19, 20
Examples of sequences with documented shrunken log2 fold change follow.

[
  {
    "SEQ_STRING": "RRIRFRPPRLPRPRPRPRQKPRP",
    "shrunken log2 fold change": 0.363
  },
  {
    "SEQ_STRING": "RRIRDRPPRLPRPRPRPMTMPRP",
    "shrunken log2 fold change": -0.00418
  },
  {
    "SEQ_STRING": "RRIRIRPPRLPRPRPRPCSGPRP",
    "shrunken log2 fold change": -0.852
  },
  {
    "SEQ_STRING": "RRIRSRPPRLPRPRPRPDGYPRP",
    "shrunken log2 fold change": -0.164
  },
  {
    "SEQ_STRING": "RRIRERPPRLPRPRPRPGGRPRP",
    "shrunken log2 fold change": 0.27
  },
  {
    "SEQ_STRING": "RRIRSRPPRLPRPRPRPFDHPRP",
    "shrunken log2 fold change": -0.488
  },
  {
    "SEQ_STRING": "RRIRKRPPRLPRPRPRPMQKPRP",
    "shrunken log2 fold change": -0.00412
  },
  {
    "SEQ_STRING": "RRIRQRPPRLPRPRPRPKYSPRP",
    "shrunken log2 fold change": -0.0125
  }
]
